Target: Estrogen receptor beta (Homo sapiens)
Test: qHTS assay to identify small molecule antagonists of the estrogen receptor beta (ER-beta) signaling pathway (AID 1259378); note: % is set by controls: 0 for no effect and ±100 for the full control effect
Conditions: ER-beta-UAS-bla HEK293T, beta-lactamase FRET ratio, 16 h; series mostly up to 92.4 µM
Records with an inconclusive call do not appear. Activity calls are given as the source filed them. Calls come from the whole dose curve; as a rule, active = well fitted inhibition curve with a large enough effect in the signal ratio in the repeat runs (not every such curve was filed as active); inconclusive = weak or mixed curves, or effect the other way; inactive = no such curve, though single readings can be large or run the other way; the % refers to the signal ratio.
Quick reference: activity, negative = inhibition of the listed items.
Outcome measure: activity, negative = inhibition

1) CC1CN(c2cc3c(cc2F)c(=O)c(C(=O)O)cn3-c2ccc(F)cc2F)CCN1 (centres undefined)	1.81% [at 8.39 µM] (inactive)
2) CN1CCN(c2c(F)cc3c(=O)c(C(=O)O)cn4c3c2OCN4C)CC1	2.63% [at 19 µM] (inactive)
3) [O]=[Bi]	1.25% [at 8.39 µM] (inactive)
4) C=CCCCCCCCCCCCCCCCC	3.67% [at 8.39 µM] (inactive)

* * *

Molecular target: Peroxisome proliferator-activated receptor gamma (Homo sapiens)
Assay: qHTS assay to identify small molecule antagonists of the peroxisome proliferator-activated receptor gamma (PPARg) signaling pathway (AID 743191); note: nearly all actives have a fitted effect of over 30% in size; note: potency is the fitted concentration of half-maximal effect
Details: HEK293H PPARg-UAS-bla, beta-lactamase ratio, antagonist, 17 h; series mostly up to 62.6 µM
Inconclusive results are not listed. Active and inactive are the calls of the source. The call rests on the fitted dose curve.
Outcome measure: Potency

1. OC(CCCN1CCCCC1)(c1ccccc1)c1ccccc1	inactive
2. O=S(=O)(c1ccccc1)c1ccc(Cl)cc1	inactive
3. COCCOC(=O)C1=C(C)NC(C)=C(C(=O)OC/C=C/c2ccccc2)C1c1cccc([N+](=O)[O-])c1 (stereo not given)	18.8 µM (active)
4. CCn1cc(C(=O)O)c(=O)c2cc(F)c(N3CCNCC3)nc21	inactive
5. CN1Cc2cc(C(=O)N3CCC(C4CCNCC4)CC3)ccc2N[C@@H](CC(=O)O)C1=O	inactive

* * *

Test: Human pregnane X receptor (PXR) small molecule agonists, qHTS cell viability counter screen (AID 1346977); note: nearly all actives have a fitted effect of over 50% in size
Settings: PXR-Luc HepG2 viability, CellTiter-Fluor, 24 h; series mostly up to 92.4 µM
Inconclusive results are not listed. Calls of active or inactive are those of the source. Calls come from the whole dose curve; as a rule, active = well fitted cell-killing curve with a large enough effect in the repeat runs; inconclusive = weak or mixed curves, or effect the other way; inactive = flat fitted curve, though single readings scatter.
Classes used: active, inactive

1. OCC1CC=CCC1 (configuration not stated)	inactive
2. CC(C)(C)C(=O)C(Oc1ccc(Cl)cc1)n1ccnc1 (configuration not stated)	inactive
3. CO[C@@]12[C@H](COC(N)=O)C3=C(C(=O)C(C)=C(N)C3=O)N1C[C@@H]1N[C@@H]12	active
4. CCCOC(=O)c1ccc(N)cc1	inactive
5. CCC(C(=O)OCCN(CC)CC)c1ccccc1 (configuration not stated)	inactive
6. CCCCCCCCCCOS(=O)(=O)O	inactive
7. CC(C)c1nnc2ccc(-c3ocnc3-c3cc(F)ccc3F)cn12	inactive
8. O=C(O)c1ccccc1NCCc1ccccc1	inactive
9. CC(=O)N(c1onc(C)c1C)S(=O)(=O)c1ccc(N)cc1	inactive
10. O=C(O)Cc1ccc(-c2ccccc2)cc1	inactive
11. O=C(CCCCCCCCC#CI)Oc1ccccc1	inactive
12. Cc1cc(C(=C2C=CC(=Nc3ccc(S(=O)(=O)O)cc3S(=O)(=O)O)C=C2)c2ccc(Nc3ccc(S(=O)(=O)O)cc3)cc2)ccc1N	inactive
13. Cc1occc1C(=O)Nc1ccc(C(=O)N2CCC(F)(F)/C(=C\C(=O)N3CCC(N4CCCCC4)CC3)c3ccccc32)cc1	active
14. CCC1(C)CC(=O)NC1=O (configuration not stated)	inactive
15. O=S1OCCO1	inactive
16. NC(=O)Nc1ccc(Cl)c(Cl)c1	inactive
17. C[C@@H]1C[C@H]2[C@@H]3CCC4=CC(=O)C=C[C@]4(C)[C@@]3(F)[C@@H](O)C[C@]2(C)[C@@]1(O)C(=O)CO	inactive
18. CN1Cc2cc(C(=O)N3CCC(C4CCNCC4)CC3)ccc2N[C@@H](CC(=O)O)C1=O	inactive
19. COC(=O)c1cc(S(N)(=O)=O)ccc1OC	inactive
20. CC(C)CCCC(=O)O	inactive
21. C=CC(=C)CCCC(C)(C)OC(C)=O	inactive
22. CCCCC(CC)CNCC(CC)CCCC (configuration not stated)	inactive
